Ki values recorded for CDK2 (human) (UniProt P24941)
parameter-measured: Ki (nM)

In [3]: df
Out[3]:
                                item_smiles  parameter_measured  readout_value
0  CN(c1ccccc1-c1ccc2c(c1)Nc1ccccc1NC2=O)S(C)(=O)=O                  Ki           2000
1    Nc1n[nH]c2ccc(-c3cc(Cc4ccccc4)no3)cc12                  Ki            200
2  CCOC(=O)c1c(NC(=O)C2C(C)(C)C2(C)C)sc2cnccc12                  Ki           1000
